- Tested on: HCT-15 (colorectal)
- Assay Details: In vitro cytotoxicity (GI50), Sulforhodamine B staining, HCT-15
- Format: cell-based
- Condition Info: HCT-15 cells, 48 hours contact, read-out: Concentration that produce 50% cell growth inhibition (GI50) HCT-15 (COLON)
Provide the reported GI50 of each item.
Express your answer as a number followed by its unit.

Worked examples follow.
CCc1c2c(nc3ccc(OC(=O)CCC(=O)OCc4ccc(C)cc4)cc13)-c1cc3c(c(=O)n1C2)COC(=O)C3(O)CC (stereo not shown)	75.4 nM
CCc1c2c(nc3ccc(OC(=O)CCC(=O)OCc4c(C)cc(C)cc4C)cc13)-c1cc3c(c(=O)n1C2)COC(=O)C3(O)CC (stereo not shown)	31.6 nM

Return reported GI50 values for all items listed beneath this line.
1. CCc1c2c(nc3ccc(OC(=O)CC4(CC(=O)OCc5ccccc5)CCCC4)cc13)-c1cc3c(c(=O)n1C2)COC(=O)[C@]3(O)CC
2. CCc1c2c(nc3ccc(OC(=O)NC(C)(C)C)cc13)-c1cc3c(c(=O)n1C2)COC(=O)C3(O)CC (stereo not shown)
3. CCCCCCCCOC(=O)CCC(=O)OC1(CC)C(=O)OCc2c1cc1n(c2=O)Cc2cc3ccccc3nc2-1 (stereo not shown) [20-(1-octyl succinate)camptothecin]
4. CCCCCCCCOC(=O)CCC(=O)Oc1ccc2nc3c(c(CC)c2c1)Cn1c-3cc2c(c1=O)COC(=O)C2(O)CC (stereo not shown)
5. CCC1(OC(=O)CCC(=O)OCc2ccccc2)C(=O)OCc2c1cc1n(c2=O)Cc2cc3ccccc3nc2-1 (stereo not shown) [20-(benzyl succinate)camptothecin]

A:
1. 85.1 nM
2. 158 nM
3. 354 nM
4. 661 nM
5. 1300 nM
